- test_system: Peroxisome proliferator-activated receptor gamma (Homo sapiens) (UniProt P37231)
- test_protocol: Functional potency was determined in pooled human preadipocytes by measurement of PPARg aP2 gene induction
- Type: cell-based
Kindly supply the reported Activity values for the records listed here.
Kindly provide the numeric value in µM only, without the unit symbol.

Q) Can you look up the measured Activity of CC(=O)c1ccc2c(c1)OC(CCOc1ccccc1CC(=O)O)C(=O)N2Cc1ccc(Cl)cc1 (centres undefined) for me?
A) 6.2

Q) Now try COc1ccc(CN2C(=O)C(CCOc3ccccc3CC(=O)O)Oc3ccccc32)cc1 (centres undefined) .
A) 5.4

###

Field: Activity. Provide a value for each of the molecules that follow.
- test_system: Peroxisome proliferator-activated receptor gamma (Homo sapiens) (UniProt P37231)
- test_protocol: Agonist activity determined in peroxisome proliferator activated receptor gamma using PPAR gamma-Gal4 Luciferase cotransfection assay
- Format: functional
Write the answer as a number in µM, unit excluded.

Q) I am curious: what Activity value has been reported for CC(=O)c1ccc2c(c1)OC(CCOc1ccccc1CC(=O)O)C(=O)N2Cc1ccc(Cl)cc1 (stereo not drawn) ?
A) 1.8

Q) Param item: O=C(O)Cc1ccccc1OCCC1Oc2ccccc2N(c2ccc(Cl)c(Cl)c2)C1=O (stereo not drawn)
A) 0.57

Q) Next up: Cc1ccc2c(c1)OC(CCOc1ccccc1CC(=O)O)C(=O)N2Cc1ccc(Cl)cc1 (stereo not drawn)
A) 2.1

Q) Ok, now O=C(O)Cc1ccccc1OCCC1Oc2ccccc2N(Cc2cccc(Cl)c2)C1=O (stereo not drawn)
A) 1.9

Q) One more molecule: O=C(O)Cc1ccccc1OCCC1Oc2ccccc2N(Cc2ccc(F)c(F)c2)C1=O (stereo not drawn)
A) 0.59

Q) Also need COc1ccc(CN2C(=O)C(CCOc3ccccc3CC(=O)O)Oc3ccccc32)cc1 (stereo not drawn) , thanks.
A) 0.52

Q) O=C(O)Cc1ccccc1OCCC1Oc2ccccc2N(Cc2ccc3c(c2)OCO3)C1=O (stereo not drawn) , same question.
A) 1.1

Q) Item: O=C(O)Cc1ccccc1OCCC1Oc2ccccc2N(Cc2ccc(F)cc2)C1=O (stereo not drawn)
A) 1.1

Q) Queued: COc1ccc2c(c1)N(Cc1ccc(Cl)cc1)C(=O)C(CCOc1ccccc1CC(=O)O)O2 (stereo not drawn)
A) 1.8

Q) Now consider Cc1ccc(CN2C(=O)C(CCOc3ccccc3CC(=O)O)Oc3ccccc32)cc1 (stereo not drawn) and answer again.
A) 2

Q) Entry to check: O=C(O)Cc1ccccc1OCCC1Oc2ccccc2N(Cc2ccc(Cl)c(Cl)c2)C1=O (stereo not drawn)
A) 0.96

Q) Again, but for O=C(O)Cc1ccccc1OCCC1Oc2ccccc2N(Cc2ccc(C(F)(F)F)cc2)C1=O (stereo not drawn)
A) 0.5

###

- test_system: Peroxisome proliferator-activated receptor gamma (Homo sapiens) (UniProt P37231)
- Sequence (whole entry): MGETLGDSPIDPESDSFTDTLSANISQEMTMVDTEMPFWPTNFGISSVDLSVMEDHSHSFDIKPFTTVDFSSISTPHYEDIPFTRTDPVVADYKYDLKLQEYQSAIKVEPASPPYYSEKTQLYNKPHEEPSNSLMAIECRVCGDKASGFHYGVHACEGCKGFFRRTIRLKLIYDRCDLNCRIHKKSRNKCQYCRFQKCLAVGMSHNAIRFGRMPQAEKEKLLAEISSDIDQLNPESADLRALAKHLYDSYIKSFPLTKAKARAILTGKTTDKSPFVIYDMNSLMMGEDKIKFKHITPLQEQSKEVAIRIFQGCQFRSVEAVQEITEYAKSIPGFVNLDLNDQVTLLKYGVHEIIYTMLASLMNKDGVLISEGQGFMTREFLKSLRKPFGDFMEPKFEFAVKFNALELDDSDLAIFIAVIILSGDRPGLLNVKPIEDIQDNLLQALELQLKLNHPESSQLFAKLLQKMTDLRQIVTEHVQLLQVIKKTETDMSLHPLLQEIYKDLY
- test_protocol: PPAR gamma mediated aP2 gene induction in pooled human preadipocytes
- Type: functional, cell-based
Decide using Fold induction alone. Strictly below 4: t. Equal to or above 4: f.

Q) Does the reported Fold induction of O=C(O)Cc1ccccc1OCCC1Oc2ccccc2N(Cc2cccc(Cl)c2)C1=O (stereo not given) stay below 4?
A) f

Q) Repeat with O=C(O)CCc1cccc(OCCC2Oc3ccccc3N(Cc3cccc(Cl)c3)C2=O)c1 (stereo not given)
A) f

Q) Next molecule up: O=C(O)Cc1ccc(OCCC2Oc3ccccc3N(Cc3cccc(Cl)c3)C2=O)cc1 (stereo not given)
A) t

Q) Same for O=C(O)CCc1ccc(OCCC2Oc3ccccc3N(Cc3cccc(Cl)c3)C2=O)cc1 (stereo not given)
A) t

Q) Next up: O=C(O)Cc1cccc(OCCC2Oc3ccccc3N(Cc3cccc(Cl)c3)C2=O)c1 (stereo not given)
A) f
